System: MYB mRNA
TEST_METHOD_NOTES: Splicing RT-qPCR assay, canonical (CJ) and alternative (AJ) junction mRNA, K562 cells
Type: cell-based
CONDITION_NOTES: Homo sapiens, K562.3 cells, 24 hours, read-out: MYB AJ (AC50, increase in AJ mRNA)
AC50 for assorted compounds

Record excerpt, results attached:
CN[C@H]1CCN(c2ccc(C(=O)Nc3cc(F)c4nc(C)cn4c3)c3nnn(C)c23)C1: 0.1 to 1 µM
CCNC1CCN(c2ccc(C(=O)Nc3cc(F)c4nc(CF)cn4c3)c3nn(C)cc23)CC1: 0.1 to 1 µM
Cc1cn2cc(NC(=O)c3c(F)cc(N4CCNCC4)c4c3CN(C)C4)cc(F)c2n1: > 10 µM
Cc1cn2cc(NC(=O)c3ccc(N4CC[C@H](NCCO)C4)c4cn(C)nc34)cc(F)c2n1: 0.1 to 1 µM

Would you kindly share the measured AC50 for CN[C@@H]1CCN(c2ccc(C(=O)Nc3cc(F)c4nc(C)cn4c3)c3nn(C)cc23)[C@H]1C ?
> 10 µM

----------
System: MYB mRNA
TEST_METHOD_NOTES: Gene panel canonical junction qPCR assay, decrease in CJ mRNA, Table 3
Type: cell-based
CONDITION_NOTES: decrease in CJ mRNA levels, canonical junction qPCR, gene panel
MEASURED_PROPERTY: IC50

Cn1cc2cc(NC(=O)c3c(O)cc(N4CCC(NC5CC5)CC4)c4cn(C)nc34)cc(CNS(C)(=O)=O)c2n1 [Compound 852]: 100 to 1000 nM

Which IC50 is reported for this compound? Cc1cn2cc(NC(=O)c3ccc(N4CCC(NC5CC5)CC4)c4cn(C)nc34)nc2c(CCS(C)(=O)=O)n1 [Compound 702]
1000 to 10000 nM

IC50 for Cc1cn2cc(NC(=O)c3c(F)cc(N4CCC(NC5CC5)CC4)c4nc(C)sc34)cc(F)c2n1 [Compound 662] ?
> 10000 nM

Which IC50 is listed for Cc1cn2cc(NC(=O)c3ccc(N4CCC(NC5CC5)CC4)c4cn(C)nc34)nc2c(CN(C)S(C)(=O)=O)n1 [Compound 703, 2,2,2-trifluoroacetate] ?
> 10000 nM

Any idea what IC50 was measured for Cc1cn2cc(NC(=O)c3ccc(N4CCC(NC5CC5)CC4)c4cc(CO)nn34)nc2c(C)n1 [Compound 616] ?
1000 to 10000 nM

Consider the compound shown here: Cc1nc2c(F)cc(NC(=O)c3ccc(N4CCC(NC5CC5)CC4)c4cn(C)nc34)cn2n1 [Compound 755] What is its recorded IC50?
100 to 1000 nM

----------
Tested on: HTT mRNA
TEST_METHOD_NOTES: Splicing RT-qPCR assay (THP), Table 2A
Assay type: cell-based
CONDITION_NOTES: Table 2A (THP), CJ mRNA decrease, read-out: HTT CJ (decrease in canonical junction mRNA, IC50)
pIC50: −log10 of the molar value. Where a name gives a salt, the structure may show the parent alone.
MEASURED_PROPERTY: pIC50

Some solved cases for reference:
CNC1CCCC(Oc2ccc(C(=O)Nc3cn4cc(C)nc(C)c4n3)c3nn(C)cc23)C1 (stereo not shown) [Compound 593]: < 5.00
COc1c(NC(=O)c2c(F)cc(N3CC[C@@H](NC4CC4)C4(CC4)C3)c3cn(C)nc23)cn2cc(C)nc2c1F [Compound 368]: 5.00 to 6.00
CCNC1CCN(c2cc(F)c(C(=O)Nc3cc(F)c4nc(C)cn4c3)c3ccoc23)CC1 [Compound 195]: < 5.00
Cc1cn2cc(NC(=O)c3ccc(N4C[C@H](C)N[C@@H](C)C4)c4[nH]cnc34)cc(F)c2n1 [Compound 221]: 5.00 to 6.00
CCNC1CCN(c2ccc(C(=O)Nc3cc(Oc4ccccc4C)c4nc(C)cn4c3)c3nn(C)cc23)CC1 [Compound 316]: < 5.00
CO[C@H]1C[C@@H](N[C@H]2CCN(c3ccc(C(=O)Nc4cc(F)c5nc(C)cn5c4)c4nn(C)cc34)C2)C1 [Compound 277]: 5.00 to 6.00
Cn1cc2cc(NC(=O)c3c(F)cc(N4CCC(NC5CC5)CC4)c4cn(C)nc34)c(Cl)cc2n1 [Compound 439]: < 5.00
CC(=O)NCc1cn2cc(NC(=O)c3c(F)cc(N4CCC(NC5CC5)CC4)c4cn(C)nc34)nc2c(C)n1 [Compound 424]: < 5.00

Entry Cc1cn2cc(NC(=O)c3c(O)cc(N4CC[C@@H](NC5CC5)C4)c4cn(C)nc34)cc(F)c2n1 [Compound 288] : reported pIC50 = ?
< 5.00

If you can, please state the reported pIC50 value of CCNC1CCN(c2cc(F)c(C(=O)Nc3cc(F)c4nc(C)n(C)c4c3)c3nn(C)cc23)CC1 [Compound 299] .
< 5.00

Could you share which pIC50 value was measured for CNC1(C)CCN(c2ccc(C(=O)Nc3cn4cc(C)nc4c(OC)n3)c3nn(C)cc23)CC1 [Compound 197] ?
> 7.00

Look up pIC50 for this molecule: CCNC1CCN(c2ccc(C(=O)Nc3cc(Oc4cccnc4)c4nc(C)cn4c3)c3nn(C)cc23)CC1 [Compound 353]
5.00 to 6.00

Query: pIC50; subject: CCNC1CCN(c2ccc(C(=O)Nc3cn4cc(C)nc4cc3OC)c3nn(C)cc23)CC1 [Compound 323, trifluoroacetate]
5.00 to 6.00
